// reported EC50 per item
biological target: Cannabinoid receptor 2 (Rattus norvegicus); assay: Agonist activity at CB2R in Wistar rat brain membranes in presence of AM630 after 60 mins by [35S]-GTPgammaS binding assay
Sequence (Q9QZN9 whole entry): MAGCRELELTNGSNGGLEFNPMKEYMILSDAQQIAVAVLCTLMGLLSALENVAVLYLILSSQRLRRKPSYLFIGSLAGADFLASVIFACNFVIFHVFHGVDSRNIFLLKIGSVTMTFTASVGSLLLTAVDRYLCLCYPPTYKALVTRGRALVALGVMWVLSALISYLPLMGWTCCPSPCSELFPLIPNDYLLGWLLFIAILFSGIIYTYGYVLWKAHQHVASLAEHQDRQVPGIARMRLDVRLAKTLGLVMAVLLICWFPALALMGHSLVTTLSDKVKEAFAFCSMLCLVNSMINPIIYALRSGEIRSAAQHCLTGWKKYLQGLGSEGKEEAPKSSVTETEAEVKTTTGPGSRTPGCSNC
# output: bare number, implied unit nM

{"columns": ["Sample smiles", "Target of assay", "Experimental result"],
 "data": [
  ["C[C@@H](NC(=O)[C@@H](N)Cc1ccc(O)cc1)C(=O)NCC(=O)N[C@@H](Cc1ccccc1)C(=O)NCC(=O)NCCCCCn1cc(C(=O)c2cccc3ccccc23)c2ccccc21", "Cannabinoid receptor 2 (Rattus norvegicus)", 671]
]}

Consider the additional compound presented here.
Name the reported EC50 value associated with the compound COc1ccc2c3c1O[C@H]1/C(=N\OCC(=O)NCCCCCCNC(=O)CCCCCn4cc(C(=O)c5cccc6ccccc56)c5ccccc54)CC[C@@]4(O)[C@@H](C2)N(C)CC[C@]314 340
